reported.metric: melting point

Example entries begin here.
>  <compound>
Cn1nc(-c2nc(NCc3ccco3)c(N)nc2-c2ccccc2)ccc1=O

>  <melting point>
249 to 252 °C

$$$$
>  <compound>
CCOC(=O)C=Cc1nc(-c2ccc(=O)n(C(C)C)n2)c(-c2ccccc2)nc1N

>  <melting point>
233 to 236 °C

$$$$
>  <compound>
CC(C)n1nc(-c2nc(OCCc3ccccc3)c(N)nc2-c2ccccc2)ccc1=O

>  <melting point>
173 to 176 °C

$$$$

Quick one: melting point of CC(C)n1nc(-c2nc(-c3ccccc3)c(N)nc2-c2ccccc2)ccc1=O ?
225 to 226 °C

melting point for CC(C)Oc1nc(-c2ccc(=O)n(C(C)C)n2)c(-c2ccccc2)nc1N ?
198 to 200 °C

Which melting point value is on record for CC(C)n1nc(-c2nc(C(N)=O)c(N)nc2-c2ccccc2)ccc1=O ?
224 to 226 °C

May I ask what melting point has been recorded for COCCNc1nc(-c2ccc(=O)n(C(C)C)n2)c(-c2ccccc2)nc1N ?
208 to 209.5 °C

# input compound: CC(C)n1nc(-c2nc(N3CCN4CCCC4C3)c(N)nc2-c2ccccc2)ccc1=O (centres unmarked) ; wanted: its melting point
205 to 207.5 °C

Find the recorded melting point belonging to Cc1nc(-c2ccc(=O)n(C(C)C)n2)c(-c2ccccc2)nc1N and report it.
208 to 209.5 °C

If you can, please state the reported melting point value of Cn1nc(-c2nc(NCCCc3ccccc3)c(N)nc2-c2ccccc2)ccc1=O .
196 to 197.5 °C

What does the record list as melting point for Cn1nc(-c2nc(-c3cccs3)c(N)nc2-c2ccccc2)ccc1=O ?
177 °C (dec.)

Data request, read-out melting point, for CC(C)n1nc(-c2nc(OCCCc3ccccc3)c(N)nc2-c2ccccc2)ccc1=O
105 to 106.5 °C

Form field: reported melting point of CCn1nc(-c2nc(C(=O)O)c(NCc3ccc(OC)cc3)nc2-c2ccccc2)ccc1=O
> 250 °C

What measured melting point goes with CC(C)n1nc(-c2nc(NCc3ccccn3)c(N)nc2-c2ccccc2)ccc1=O ?
192 to 194 °C

What value of melting point has been reported for the following compound? Cc1csc(-c2nc(-c3ccc(=O)n(C(C)C)n3)c(-c3ccccc3)nc2N)n1
238 to 240 °C

Given the compound Cn1nc(-c2nc(NC3CCN(Cc4ccccc4)C3)c(N)nc2-c2ccccc2)ccc1=O (centres unmarked) , what is its reported melting point?
183 to 185 °C

Recorded melting point of CC(C)n1nc(-c2nc(Oc3ccc(F)cc3)c(N)nc2-c2ccccc2)ccc1=O , please.
173 to 175 °C

Which measured melting point value corresponds to CC(C)n1nc(-c2nc(-c3ccncc3)c(N)nc2-c2ccccc2)ccc1=O ?
222 to 224 °C

I would be grateful if you could share the reported melting point for Cn1nc(-c2nc(NCCc3ccccc3)c(N)nc2-c2ccccc2)ccc1=O .
232 to 234 °C

Consider the compound shown here: CC(C)n1nc(-c2nc(/C=C/c3ccccc3)c(N)nc2-c2ccccc2)ccc1=O What is its recorded melting point?
244.5 to 245 °C

Entry under review: CC(C)n1nc(-c2nc(C#CC3(O)CCCCC3)c(N)nc2-c2ccccc2)ccc1=O . Reported melting point?
238 to 240 °C

Query (compound): CC(C)n1nc(-c2nc(C#Cc3cncn3C)c(N)nc2-c2ccccc2)ccc1=O ; field requested: melting point
> 250 °C

melting point for CC(C)n1nc(-c2nc(OC3CCCCC3)c(N)nc2-c2ccccc2)ccc1=O ?
161 to 163 °C

I am curious: what melting point value has been reported for COc1ccc(CNc2nc(-c3ccc(=O)n(C(C)C)n3)c(-c3ccccc3)nc2N)cc1 ?
188.5 to 191.5 °C

Which melting point value is on record for COc1ccc(CNc2cnc(-c3ccc(=O)n(C(C)C)n3)c(-c3ccccc3)n2)cc1 ?
138 to 140 °C

Which measured melting point value corresponds to CC(=O)N1CCN(c2nc(-c3ccc(=O)n(C(C)C)n3)c(-c3ccccc3)nc2N)CC1 ?
221 to 225 °C

Endpoint output: melting point of CCn1nc(-c2nc(C#N)c(C#N)nc2-c2ccccc2)ccc1=O . Value?
201 to 203 °C

* * *

reported.metric: melting point

Worked cases, melting point given:
>  <smiles.record>
CC(C)n1nc(-c2nc(C#N)c(N)nc2-c2ccccc2)ccc1=O

>  <melting point>
231 to 233 °C

$$$$
>  <smiles.record>
CC(C)n1nc(-c2nc(-c3nc(-c4ccccc4)cs3)c(N)nc2-c2ccccc2)ccc1=O

>  <melting point>
240 to 242 °C

$$$$
>  <smiles.record>
Cn1nc(-c2nc(-n3ccnc3)c(N)nc2-c2ccccc2)ccc1=O

>  <melting point>
> 250 °C

$$$$

Pending compound:
Entry COc1ccc(CN(Cc2ccc(OC)cc2)c2nc(-c3ccccc3)c(-c3ccc(=O)n(C(C)C)n3)nc2C(N)=O)cc1 has what melting point?
120 to 122.5 °C

* * *

reported.metric: melting point

Example cases with answers are listed next.
>  <compound>
CC(C)n1nc(-c2nc(NC3CCN(Cc4ccccc4)CC3)c(N)nc2-c2ccccc2)ccc1=O [Example 107]

>  <obs.value>
214 to 216.5 °C

$$$$
>  <compound>
Cn1nc(-c2nc(N3CCN4CCCC4C3)c(N)nc2-c2ccccc2)ccc1=O (centres unmarked) [Example 131]

>  <obs.value>
177 to 179 °C

$$$$
>  <compound>
Cn1nc(-c2nc(Oc3ccc(F)cc3)c(N)nc2-c2ccccc2)ccc1=O [Example 186]

>  <obs.value>
229 to 231 °C

$$$$

Look up melting point: Cn1nc(-c2nc(N(CCO)Cc3ccccc3)c(N)nc2-c2ccccc2)ccc1=O [Example 143]
210 to 212 °C

Query: melting point; subject: COc1ccc(CN(Cc2ccc(OC)cc2)c2nc(-c3ccccc3)c(-c3ccc(=O)n(C(C)C)n3)nc2C#N)cc1 [Example 51]
207 to 209 °C

Any idea what its melting point is? The compound is CCn1nc(-c2nc(C(N)=O)c(N)nc2-c2ccccc2)ccc1=O [Example 14]
> 250 °C

I'd like to know its melting point. The compound in question is CC(C)n1nc(-c2nc(-c3ccco3)c(N)nc2-c2ccccc2)ccc1=O [Example 88]
211 to 213 °C

Bench note: what melting point did CC(C)n1nc(-c2nc(N3CCN(C)CC3)c(N)nc2-c2ccccc2)ccc1=O [Example 113] show?
155 to 157 °C

* * *

reported.metric: melting point

>  <compound>
CC(C)n1nc(-c2nc(S(C)(=O)=O)c(N)nc2-c2ccccc2)ccc1=O [Example 55]

>  <reported.metric>
melting point

>  <obs.value>
249 to 251 °C

$$$$
>  <compound>
CCn1nc(-c2ncc(N)nc2-c2ccccc2)ccc1=O [Example 59]

>  <reported.metric>
melting point

>  <obs.value>
227 to 229 °C

$$$$
>  <compound>
COc1ccc(CNc2nc(-c3ccccc3)c(-c3ccc(=O)n(C(C)C)n3)nc2C#N)cc1 [Example 47]

>  <reported.metric>
melting point

>  <obs.value>
89 to 93 °C

$$$$
>  <compound>
CC(C)n1nc(-c2nc(-n3cccn3)c(N)nc2-c2ccccc2)ccc1=O [Example 149]

>  <reported.metric>
melting point

>  <obs.value>
210 to 212 °C

$$$$
>  <compound>
CC(C)n1nc(-c2nc(C#N)c(NC=O)nc2-c2ccccc2)ccc1=O [Example 25]

>  <reported.metric>
melting point

>  <obs.value>
198 to 200 °C

$$$$

Look up melting point: CC(=O)c1nc(-c2ccc(=O)n(C(C)C)n2)c(-c2ccccc2)nc1N [Example 94]
234 to 236.5 °C

Fill blank: measured melting point of the compound Cn1nc(-c2nc(OCCCc3ccccc3)c(N)nc2-c2ccccc2)ccc1=O [Example 183] is ____.
91 to 94 °C

I have this compound here, CC(C)n1nc(-c2nc(C(N)=O)c(N)nc2-c2ccccc2Br)ccc1=O [Example 192] , and I need its recorded melting point.
240 to 243 °C

So what's the measured melting point for this one? CC(C)n1nc(-c2nc(N3CCNCC3)c(N)nc2-c2ccccc2)ccc1=O [Example 112]
157 to 159 °C

Report melting point for Cn1nc(-c2nc(OCc3ccccc3)c(N)nc2-c2ccccc2)ccc1=O [Example 182] please.
185 to 187 °C

For CCCCOc1nc(-c2ccc(=O)n(C(C)C)n2)c(-c2ccccc2)nc1N [Example 165] , what is its reported melting point?
130 to 131.5 °C

* * *

The compounds listed here are annotated with their melting point.

Please review the entries below; each comes with its answer.
>  <smiles.record>
COc1ccc(CNc2nc(-c3ccc(=O)n(C)n3)c(-c3ccccc3)nc2N)cc1

>  <obs.value>
> 250 °C

$$$$
>  <smiles.record>
CC(C)n1nc(-c2nc(N3CC4CCC(C3)O4)c(N)nc2-c2ccccc2)ccc1=O

>  <obs.value>
235 to 238 °C

$$$$
>  <smiles.record>
CC(C)n1nc(-c2nc(NCCN(C)C)c(N)nc2-c2ccccc2)ccc1=O

>  <obs.value>
188 to 189 °C

$$$$
>  <smiles.record>
Cn1nc(-c2nc(C#Cc3ccccc3)c(N)nc2-c2ccccc2)ccc1=O

>  <obs.value>
234 to 236 °C

$$$$

# lookup: melting point of COc1nc(-c2ccccc2)c(-c2ccc(=O)n(C(C)C)n2)nc1C#N
170 to 172 °C

src = patent US7265120B2
